# measured-target: muscarinic receptors
# Format: binding, Hooded Lister rats
# test-context: 0.27nM 3H-QNB, rat cerebral cortex, tris pH 7.7, 37° C., 30 min
pIC50: −log10 of the molar value.
Given measured pIC50, output True if it is greater than or equal to 5 and False if not.

molecule	discrete-label
COC(=O)c1ncc(C23CCCN(CC2)C3)o1 (racemic) [Example E9]	False
FCc1ncc(C23CCCN(CC2)C3)o1 (racemic) [Example E12]	True
COCc1ncc(C23CCN(CC2)C3)o1 [Example E17]	False

Lookup: Can N#Cc1ncc(C23CCCN(CC2)C3)o1 (racemic) [Example E13] be said to have pIC50 at or above 5?
Found: True

Lookup: Can COCc1ncc(C23CCCN(CC2)C3)o1 (racemic) [Example E11] be said to have pIC50 at or above 5?
Found: True

Lookup: Can Nc1ncc(C23CCCN(CC2)C3)o1 (racemic) [Example E3] be said to have pIC50 at or above 5?
Found: True

Lookup: Can Nc1nc(C23CCCN(CC2)C3)cs1 (racemic) [Example E4] be said to have pIC50 at or above 5?
Found: True

Lookup: Can Nc1nc(C23CCCN(CC2)C3)co1 (racemic) [Example E1] be said to have pIC50 at or above 5?
Found: False
